The measured values listed here are drawn from patent US8455451B2.

# Tested on: HCV replicon cells
# measurement_protocol: HCV EC50 determination, replicon luciferase assay
# Format: cell-based
# condition_context: Hepatitis C virus, 72 h; replicon cells, 3 days incubation, luciferase readout; read-out: EC50
attribute_measured: EC50

C[C@@]1(F)[C@@H]2OP(=O)(O)OC[C@H]2O[C@@]1(C#N)c1ccc2c(N)ncnn12 | 39.4 to 40.3 µM
CC(C)OC(=O)[C@H](C)NP(=O)(OC[C@H]1O[C@@](C#N)(c2ccc3c(N)ncnn23)[C@](C)(F)[C@@H]1O)Oc1ccccc1 (stereo partly drawn) | 16 to 28 µM

Next, consider the following compound.
Ask | I would be grateful if you could share the reported EC50 for CCOC(=O)[C@H](C)NP(=O)(OC[C@H]1O[C@@H](c2ccc3c(N)ncnn23)[C@](C)(F)[C@@H]1O)Oc1ccccc1 (stereo partly drawn) .
Reply | 63 to 73 µM

---

# target_entity: S282T mutant HCV Δ21 NS5b polymerase (Hepatitis C virus genotype 1b, UniProt Q9WMX2, S2701T)
# Construct: 75 nM HCV Δ21 NS5b polymerase
# measurement_protocol: biochemical
attribute_measured: pIC50
The quantity pIC50 is defined as the negative base-10 logarithm of the molar concentration.

Sample answers from the record:
C[C@@]1(F)[C@H](O)[C@@H](COP(=O)(O)OP(=O)(O)OP(=O)(O)O)O[C@H]1c1cnc2c(=O)[nH]c(N)nn12 [TP-1] | 6.82
C[C@@]1(F)[C@H](O)[C@@H](COP(=O)(O)OP(=O)(O)OP(=O)(O)O)O[C@H]1c1cnc2c(N)ncnn12 | 5.80

Moving on to another compound below.
Ask | // query pIC50 value for entry C[C@@]1(F)[C@H](O)[C@@H](COP(=O)(O)OP(=O)(O)OP(=O)(O)O)O[C@@]1(C#N)c1ccc2c(N)ncnn12 [TP-2]
Reply | 5.80

---

# target_entity: wild type HCV Δ21 NS5b polymerase (Hepatitis C virus genotype 1b, UniProt Q9WMX2)
# Construct: 75 nM HCV Δ21 NS5b polymerase
# measurement_protocol: HCV IC50 determination, NS5b polymerase assay, wild type enzyme
# Assay type: biochemical
Below, each of the molecules is paired with its reported IC50 value.
Please reply with the bare figure in nM and do not write the unit itself.

Worked examples, 3 molecules total:
C[C@@]1(F)[C@H](O)[C@@H](COP(=O)(O)OP(=O)(O)OP(=O)(O)O)O[C@H]1c1cnc2c(N)ncnn12 | 300
C[C@@]1(F)[C@H](O)[C@@H](COP(=O)(O)OP(=O)(O)OP(=O)(O)O)O[C@H]1c1cnc2c(=O)[nH]c(N)nn12 | 150
C[C@@]1(F)[C@H](O)[C@@H](COP(=O)(O)OP(=O)(O)OP(=O)(O)O)O[C@@]1(C#N)c1ccc2c(N)ncnn12 | 240

// switching to the query molecule
Ask | Reported IC50, molecule `C[C@@]1(F)[C@H](O)[C@@H](COP(=O)(O)OP(=O)(O)OP(=O)(O)O)O[C@H]1c1ccc2c(N)ncnn12` : ____
Reply | 34

---

# Tested on: HCV replicon cells
# measurement_protocol: HCV EC50 determination, replicon luciferase assay
# Type: cell-based
# condition_context: Hepatitis C virus, 72 h; replicon cells, 3 days incubation, luciferase readout; read-out: EC50
pEC50: −log10 of the molar value.
attribute_measured: pEC50

Ask | Value lookup for pEC50; key = CCOC(=O)[C@H](CCS(C)(=O)=O)NP(=O)(OC[C@H]1O[C@@](C#N)(c2ccc3c(N)ncnn23)[C@](C)(F)[C@@H]1O)Oc1ccccc1 (stereo partly drawn)
Reply | 4.96

Ask | Returns the measured pEC50 for the input compound. Input: `CC(C)OC(=O)OCOP(=O)(OCOC(=O)OC(C)C)OC[C@H]1O[C@@](C#N)(c2ccc3c(N)ncnn23)[C@](C)(F)[C@@H]1O`
Reply | 5.10 to 5.19

Ask | Request the reported pEC50 associated with CCOC(=O)[C@H](C)NP(=O)(OC[C@H]1O[C@@H](c2cnc3c(N)ncnn23)[C@](C)(F)[C@@H]1O)Oc1ccccc1 (stereo partly drawn)
Reply | 6.17
